# target_entity: DNA gyrase (Escherichia coli) (UniProt P0AES6+P0AES4)
# experiment_summary: In vivo efficacy against Escherichia coli JUHL by subcutaneous administration
# Format: functional, organism-based
# test_conditions: Escherichia coli K-12
property: log10 of ED50 (log10 of the value in mg/kg)
In our notation, the value equals log10 of ED50 in mg/kg.

Lab book: log10 of ED50 of Cc1c(N2CCC(N(C)C)C2)c(F)cn2c(=O)c(C(=O)O)cc(C3CC3)c12 (centres undefined) noted as 0.28

Lab book: log10 of ED50 of Cc1c(N2C[C@@H]3CCN[C@@H]3C2)c(F)cn2c(=O)c(C(=O)O)cc(C3CC3)c12 (stereo in doubt; (S,S)45o) noted as -0.10

Lab book: log10 of ED50 of "Cc1c(N2CC[C@@]3(C[C@H]3N)C2)c(F)cn2c(=O)c(C(=O)O)cc(C3CC3)c12" noted as 0.28

Lab book: log10 of ED50 of Cc1c(N2C[C@H]3CCN[C@H]3C2)c(F)cn2c(=O)c(C(=O)O)cc(C3CC3)c12 (single isomer, unassigned) noted as -0.30

Lab book: log10 of ED50 of Cc1c(N2C[C@@H]3CCCN[C@@H]3C2)c(F)cn2c(=O)c(C(=O)O)cc(C3CC3)c12 (stereo in doubt; 45n) noted as 0.00

Lab book: log10 of ED50 of CNC1CCN(c2c(F)cn3c(=O)c(C(=O)O)cc(C4CC4)c3c2C)C1 (centres undefined) noted as -0.15

Please look at the following molecule next.
Lab book: log10 of ED50 of CC(NC(=O)C(C)N[C@H]1C[C@H](C)N(c2nc3c(-c4ccc(F)cc4F)cc(C(=O)O)c(=O)n3cc2F)C1)C(=O)O (some centres undefined) noted as 0.52

---

# Test system: Streptococcus pneumoniae
# experiment_summary: In vivo efficacy against Strep. administration
# Assay type: functional
Measured ED50 of individual entries
State the value, then name its unit.

Illustrative cases are given below, each with its answer.
Lab note: compound Cc1c(N2C[C@@H]3CCCN[C@@H]3C2)c(F)cn2c(=O)c(C(=O)O)cc(C3CC3)c12 (stereo in doubt; (S,S)45n) tested on Streptococcus pneumoniae; recorded ED50 was 3.6 mg/kg

Lab note: compound NC1CCN(c2c(F)cn3c(=O)c(C(=O)O)cc(C4CC4)c3c2Cl)C1 (centres undefined) tested on Streptococcus pneumoniae; recorded ED50 was 11.1 mg/kg

Lab note: compound Cc1c(N2C[C@@H]3CCN[C@@H]3C2)c(F)cn2c(=O)c(C(=O)O)cc(C3CC3)c12 (stereo in doubt; (S,S)45o) tested on Streptococcus pneumoniae; recorded ED50 was 11.2 mg/kg

Please look at the following compound next.
Lab note: compound "Cc1c(N2C[C@@H]3[C@@H](N)[C@@H]3C2)c(F)cn2c(=O)c(C(=O)O)cc(C3CC3)c12" tested on Streptococcus pneumoniae; recorded ED50 was 6.7 mg/kg

---

Measured MIC of individual entries
# target_entity: DNA gyrase (Staphylococcus aureus) (UniProt P0A0K8+P20831)
# Sequence (P0A0K8 2-644 limits assumed): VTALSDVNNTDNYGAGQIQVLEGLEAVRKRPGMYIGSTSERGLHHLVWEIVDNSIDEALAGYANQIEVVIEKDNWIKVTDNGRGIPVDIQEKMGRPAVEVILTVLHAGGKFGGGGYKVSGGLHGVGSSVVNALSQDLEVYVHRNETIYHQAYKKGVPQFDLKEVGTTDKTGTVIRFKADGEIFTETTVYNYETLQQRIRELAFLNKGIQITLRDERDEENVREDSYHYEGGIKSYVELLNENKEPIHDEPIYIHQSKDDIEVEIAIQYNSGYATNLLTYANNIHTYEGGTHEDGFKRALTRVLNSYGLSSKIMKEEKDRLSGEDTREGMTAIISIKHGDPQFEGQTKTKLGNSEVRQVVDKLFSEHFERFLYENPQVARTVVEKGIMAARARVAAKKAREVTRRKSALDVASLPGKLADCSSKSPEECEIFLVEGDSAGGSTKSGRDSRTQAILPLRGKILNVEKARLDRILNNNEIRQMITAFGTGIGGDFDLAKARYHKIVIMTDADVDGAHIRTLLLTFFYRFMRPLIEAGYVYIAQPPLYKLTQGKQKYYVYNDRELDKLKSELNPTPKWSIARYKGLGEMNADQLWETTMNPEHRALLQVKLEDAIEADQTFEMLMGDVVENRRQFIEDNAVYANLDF
# Sequence (P20831 whole entry partner): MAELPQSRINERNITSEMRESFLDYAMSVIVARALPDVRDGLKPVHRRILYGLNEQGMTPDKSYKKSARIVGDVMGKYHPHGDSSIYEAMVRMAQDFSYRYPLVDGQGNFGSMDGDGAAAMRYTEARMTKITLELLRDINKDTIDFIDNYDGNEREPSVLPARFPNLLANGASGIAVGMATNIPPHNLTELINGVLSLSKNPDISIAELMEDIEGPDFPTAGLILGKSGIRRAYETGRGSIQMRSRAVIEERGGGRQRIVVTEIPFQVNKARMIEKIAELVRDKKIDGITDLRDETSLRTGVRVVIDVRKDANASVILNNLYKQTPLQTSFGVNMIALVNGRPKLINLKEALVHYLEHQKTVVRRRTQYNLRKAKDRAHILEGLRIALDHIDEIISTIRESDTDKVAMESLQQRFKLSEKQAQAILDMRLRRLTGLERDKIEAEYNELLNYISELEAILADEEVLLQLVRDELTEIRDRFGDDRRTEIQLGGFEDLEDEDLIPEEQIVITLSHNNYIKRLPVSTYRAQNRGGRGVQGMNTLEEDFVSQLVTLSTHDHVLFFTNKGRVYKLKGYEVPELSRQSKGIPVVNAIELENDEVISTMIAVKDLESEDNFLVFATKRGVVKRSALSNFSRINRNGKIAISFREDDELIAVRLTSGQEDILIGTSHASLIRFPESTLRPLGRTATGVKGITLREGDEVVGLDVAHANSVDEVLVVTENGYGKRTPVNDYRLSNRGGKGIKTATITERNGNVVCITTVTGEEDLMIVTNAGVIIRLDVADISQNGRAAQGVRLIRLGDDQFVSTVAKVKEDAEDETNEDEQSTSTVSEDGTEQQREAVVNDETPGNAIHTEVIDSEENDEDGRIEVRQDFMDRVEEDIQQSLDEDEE
# experiment_summary: In vitro antibacterial activity against gram-positive organism Staphylococcus aureus 1775
# Type: functional

Illustrative cases are given below, each with its answer.
Lab book: MIC of COc1c(N2CCC(N)C2)c(F)cn2c(=O)c(C(=O)O)cc(C3CC3)c12 (configuration not stated) noted as 3.1 µg/mL

Lab book: MIC of NC1CCN(c2nc3c(-c4c(F)c(F)c(F)c(F)c4F)cc(C(=O)O)c(=O)n3cc2F)C1 (configuration not stated) noted as > 100 µg/mL

Lab book: MIC of NC1CCN(c2nc3c(C4CC4)cc(C(=O)O)c(=O)n3cc2F)C1 (configuration not stated) noted as 25 µg/mL

Lab book: MIC of "Cc1c(N2CC[C@H]([C@@H](C)N)C2)c(F)cn2c(=O)c(C(=O)O)cc(C3CC3)c12" noted as 0.2 µg/mL

Lab book: MIC of "Cc1c(N2C[C@@H](N)[C@@H](C)C2)c(F)cn2c(=O)c(C(=O)O)cc(C3CC3)c12" noted as 0.78 µg/mL

---
Lab book: MIC of Cc1c(F)c(N2CCC(N)C2)cc2c(C3CC3)cc(C(=O)O)c(=O)n12 (configuration not stated) noted as 50 µg/mL

Lab book: MIC of "Cc1c(N2CC[C@H](N)C2)c(F)cn2c(=O)c(C(=O)O)cc(C3CC3)c12" noted as 0.78 µg/mL
